The reported numbers originate from patent US20260085114A1.

- Target Or Test System: T1, human GPRC5D (G protein-coupled receptor class C group 5 member D), on cells (human, UniProt Q9NZD1 1-345)
- T1 construct: whole, on cells; also called hGPRC5D
- T1 sequence (Q9NZD1 whole entry): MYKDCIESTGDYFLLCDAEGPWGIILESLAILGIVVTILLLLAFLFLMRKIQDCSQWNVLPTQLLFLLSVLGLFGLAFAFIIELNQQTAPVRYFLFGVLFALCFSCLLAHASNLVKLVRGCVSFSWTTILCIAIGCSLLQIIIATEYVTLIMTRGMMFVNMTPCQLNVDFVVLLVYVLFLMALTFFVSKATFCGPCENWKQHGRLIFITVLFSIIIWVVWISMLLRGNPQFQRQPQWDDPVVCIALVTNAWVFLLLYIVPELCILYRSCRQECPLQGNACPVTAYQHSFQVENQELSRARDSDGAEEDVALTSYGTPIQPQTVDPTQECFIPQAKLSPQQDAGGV
- Assay Procedure: FACS on 293T cells expressing human GPRC5D
Endpoint: EC50 (µg/mL)
Output spec: scalar in µg/mL, unitless text.

humanized antibody 24F5 (hz) (antibody, V domains shown) VH: QVQLVQSGAEVKKPGASVKVSCKASGYTFPYYVMHWVRQAPGQGLEWIGYINPYNDGTKYNEKFKGRATLTSDKSTSTAYMELSSLRSEDTAVYYCARGGVRRYFDYWGQGTTVTVSS VL: DIQMTQSPSTLSASVGDRVTITCRASQDIGSNLNWLQQKPGGTIKRLIYATSSLDSGVPSRFSGSRSGSEYTLTISSLQPDDFATYYCLQYATFPYTFGQGTRLEIKR :: 0.7
humanized antibody 6E97 (hz) (antibody, V domains shown) VH: QVQLVQSGAEVKKPGASVKVSCKASGYTFPYYVIHWVRQAPGQGLEWIGYINPYNAGTKYNEKFKGRATLTSDKSTSTAYMELSSLRSEDTAVYYCARGGVRRYFDYWGQGTTVTVSS VL: DIQLTQSPSTLSASVGDRVTITCRASQDIGSNLNWLQQKPGGTIKRLISATSSLDSGVPSRFSGSRSGSEYTLTISSLQPDDFATYYCLQYATFPYTFGQGTRLEIKR :: 0.351
humanized antibody 26D1 (hz) (antibody, V domains shown) VH: QVQLVQSGAEVKKPGASVKVSCKASGYTFTSYTIQWIKQAPGQGLEWIGYIIPSSGYTNYNQKFKDKATLTADKSSNTAYMELSSLTSEDTAVYYCANNYGNWGFTYWGQGTTVTVSS VL: DIQMTQSPSTLSASVGDRVTITCKASQNVGSAVTWYQQKPGKAPRLLIYSASNRYTGVPDRFSGSGSGTEFTLTISSLQPDDFATYFCQQYSNYPLTFGQGTRLEIKR :: 0.228

Next, consider the following binder.
The reported value for humanized antibody 9D7 (hz) (antibody, V domains shown) VH: QVQLQESGPGLVKPSETLSLTCTVSGYSITSDYAWNWIRQPPGKGLEWMGYISYSGSATYSPSLKSRITISRDTSKNQFSLKLSSVTAADTAVYYCARGGIAGRGRWGAMDYWGQGTTVTVSS VL: DIQMTQSPSSLSASVGDRVTITCKASQNVGTNVAWYQQKPGQSPKALIYSASYRDSGVPDRFSGSGSGTDFTLTISSLQPEDFATYYCQQYKSYPLTFGQGTRLEIKR in terms of EC50 is 0.283
